- targetEntity: CB1 receptor (Homo sapiens)
- Construct: purchased Eurofin Cerep ITEM G012
- Sequence (P21554 whole entry): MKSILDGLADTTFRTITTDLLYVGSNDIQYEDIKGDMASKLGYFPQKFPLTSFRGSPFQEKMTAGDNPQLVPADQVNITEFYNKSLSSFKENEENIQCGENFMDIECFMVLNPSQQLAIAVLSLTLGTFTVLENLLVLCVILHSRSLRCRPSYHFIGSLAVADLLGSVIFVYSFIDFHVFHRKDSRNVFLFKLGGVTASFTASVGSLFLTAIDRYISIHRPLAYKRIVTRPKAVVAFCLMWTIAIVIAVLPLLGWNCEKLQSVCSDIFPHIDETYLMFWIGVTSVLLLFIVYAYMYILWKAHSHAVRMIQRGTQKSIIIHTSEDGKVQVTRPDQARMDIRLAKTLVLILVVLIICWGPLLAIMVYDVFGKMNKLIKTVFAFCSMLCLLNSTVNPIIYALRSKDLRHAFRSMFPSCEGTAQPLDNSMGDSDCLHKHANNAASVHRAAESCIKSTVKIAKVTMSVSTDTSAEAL
- procedureText: CB1R activity (Eurofin Cerep)
- Type: cell-based
- setupConditions: antagonist mode; read-out: CB1R antagonist IC50
measurementType: pIC50
Recall that pIC50 is obtained by taking minus log10 of the concentration measured in molar.

[ask] Requested field: pIC50. Item: C[C@H]1N(c2ccc(Br)cc2)C(=O)N(c2ccc(Br)cc2)C1(O)c1cccc(OC(F)(F)F)c1 (stereo partly shown) [S202]
[reply] 5.54

The reported numbers originate from paper PMC8280112.
